For each entry below, report its CC50 at 72 h value.
- run description: Cytotoxicity against human Huh5-2 cells assessed as reduction in cell viability measured after 3 days by CellTiter 96 AQueous One Solution Cell Proliferation assay
- Format: cell-based, Huh-5-2

Below are worked cases with known answers.
1. COC[C@H]1C[C@@](CC(C)C)(C(=O)O)N(C(=O)c2ccc(C(C)(C)C)c(OC)c2)[C@H]1[C@H]1COC(=O)O1: > 120 µM
2. COC[C@H]1C[C@@](CC(C)C)(C(=O)O)N(C(=O)c2ccc(C(C)(C)C)c(OC)c2)[C@@H]1c1nccs1: 200 µM
3. COC[C@H]1C[C@@](CC(C)C)(C(=O)O)N(C(=O)c2ccc(C(C)(C)C)c(OC)c2)[C@H]1COC(=O)OC: > 120 µM

# ---- query molecule ----
Given COC[C@H]1C[C@@](CC(C)C)(C(=O)O)N(C(=O)c2ccc(C(C)(C)C)c(OC)c2)[C@H]1COC , state its recorded CC50 at 72 h.
> 120 µM
